Cited source: patent US8613914B2

Molecular target: HCV NS3-4A serine protease (full-length NS3-4A protein) (Hepatitis C virus genotype 1a (isolate 1) (HCV), UniProt P26664)
Sequence (P26664 1027-1657): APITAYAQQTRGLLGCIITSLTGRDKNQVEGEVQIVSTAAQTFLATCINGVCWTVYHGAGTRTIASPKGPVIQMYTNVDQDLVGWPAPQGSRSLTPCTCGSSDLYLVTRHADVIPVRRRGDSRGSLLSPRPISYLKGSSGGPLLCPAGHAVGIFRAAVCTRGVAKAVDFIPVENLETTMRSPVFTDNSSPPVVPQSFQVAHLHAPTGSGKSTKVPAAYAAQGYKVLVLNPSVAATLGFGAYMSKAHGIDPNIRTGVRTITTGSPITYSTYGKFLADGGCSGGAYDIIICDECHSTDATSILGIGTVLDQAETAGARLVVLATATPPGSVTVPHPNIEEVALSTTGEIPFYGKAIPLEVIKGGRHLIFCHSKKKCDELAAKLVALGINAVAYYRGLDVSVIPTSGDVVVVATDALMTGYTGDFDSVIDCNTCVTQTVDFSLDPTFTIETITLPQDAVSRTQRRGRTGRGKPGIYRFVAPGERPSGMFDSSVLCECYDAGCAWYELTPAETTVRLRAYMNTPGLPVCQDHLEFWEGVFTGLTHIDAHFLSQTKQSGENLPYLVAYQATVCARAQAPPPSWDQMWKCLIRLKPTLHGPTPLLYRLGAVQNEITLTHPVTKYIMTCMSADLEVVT
Sequence (P26664 1658-1711 partner): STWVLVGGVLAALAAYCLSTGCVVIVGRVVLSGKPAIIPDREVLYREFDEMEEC
Experiment: HCV NS3-4A protease assay
Details: strain HCV-1, fluorogenic peptide substrate, read-out: Protease assay Ex. 12 IC50
The reader will find reported pIC50 values listed item by item below.
Scale: pIC50 equals -log10([C]), with [C] in mol/L.

CC[C@@H]1C[C@]1(NC(=O)[C@@H]1C[C@@]2(CN1C(=O)[C@@H](NC(=O)[C@@H](NC(=O)[C@@H]1CCCCN1C(C)C)C(C)(C)C)C(C)(C)C)C(C)(C)C21CCC1)C(=O)NS(=O)(=O)N1CCCC1 [Compound 30] :: 7.21

[ask] Report measured pIC50; entry is C=C[C@@H]1C[C@]1(NC(=O)[C@@H]1C[C@@]2(CN1C(=O)[C@@H](NC(=O)[C@@H](NC(=O)c1cnccn1)C1CCCCC1)C1CCOCC1)C(C)(C)C21CCC1)C(=O)NS(=O)(=O)N1CCCC1 [Compound 42]
[reply] 7.40

----------
Biological target: HCV NS3-4A serine protease (full-length NS3-4A protein) (Hepatitis C virus genotype 1a (isolate 1) (HCV))
Experiment: HCV NS3-4A protease assay
Conditions: strain HCV-1, fluorogenic peptide substrate, read-out: Protease assay Ex. 12 IC50
EXPERIMENTAL ENDPOINT: IC50 (nM)
Output spec: scalar in nM, unitless text.

C=C[C@@H]1C[C@]1(NC(=O)[C@@H]1C[C@@]2(CN1C(=O)[C@@H](NC(=O)[C@@H](NC(=O)[C@@H]1CCCN1CC)C1(C)CCCCC1)C(C)(C)C)C(C)(C)C21CCC1)C(=O)NS(=O)(=O)N1CCCC1 :: 7

[ask] Report measured IC50; entry is `C=C[C@@H]1C[C@]1(NC(=O)[C@@H]1C[C@@]2(CN1C(=O)[C@@H](NC(=O)[C@@H](NC(=O)[C@@H]1CCCCN1C(C)C)C1CCCCC1)C(C)(C)C)C(C)(C)C21CCC1)C(=O)NS(=O)(=O)N(CC)CCF`
[reply] 1.3

----------
Biological target: HCV NS3-4A serine protease (full-length NS3-4A protein) (Hepatitis C virus genotype 1a (isolate 1) (HCV), UniProt P26664)
Test: HCV NS3-4A protease assay
Conditions: strain HCV-1, fluorogenic peptide substrate, read-out: Protease assay Ex. 12 IC50
pIC50: −log10 of the molar value.
Decide using pIC50: a value greater than or equal to 8 is Met, a smaller one is Not met.

[ask] I'd appreciate it if you could say whether C=C[C@@H]1C[C@]1(NC(=O)[C@@H]1C[C@@]2(CN1C(=O)[C@@H](NC(=O)[C@@H](NC(=O)c1cnn(-c3ccccc3)c1)C1CCCCC1)C(C)(C)C)C(C)(C)C21CCC1)C(=O)NS(=O)(=O)N1CCCC1 [Compound 184] has pIC50 at least equal to 8.
[reply] Not met

[ask] I'd appreciate it if you could say whether C=C[C@@H]1C[C@]1(NC(=O)[C@@H]1C[C@@]2(CN1C(=O)[C@@H](NC(=O)[C@@H](NC(=O)[C@@H]1CCCN1CC(F)F)C1CCCCC1)C1CCOCC1)C(C)(C)C21CCC1)C(=O)NS(=O)(=O)N1CCCC1 [Compound 72] has pIC50 at least equal to 8.
[reply] Not met

[ask] I'd appreciate it if you could say whether C=C[C@@H]1C[C@]1(NC(=O)[C@@H]1C[C@@]2(CN1C(=O)[C@@H](NC(=O)[C@@H](NC(=O)c1[nH]c(C)c(C)c1C(C)=O)C(C)(C)C)C(C)(C)C)C(C)(C)C21CCC1)C(=O)NS(=O)(=O)N1CCCC1 [Compound 161] has pIC50 at least equal to 8.
[reply] Not met
